// 3' UTR reporter interaction score lookup, one value per entry
Test system: FBXW7
TEST_PROTOCOL: 3' UTR reporter interaction score (median-centred robust z-score of log2 firefly/Renilla activity); higher = less repression of the 3' UTR reporter
CONDITION_NOTES: HEK293T; 48 h
Response field accepts a number only; no unit should be typed.

[
  {
    "ITEM_SEQUENCE": "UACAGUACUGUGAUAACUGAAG",
    "TARGET_SYSTEM": "FBXW7",
    "3' UTR reporter interaction score": -3.92
  },
  {
    "ITEM_SEQUENCE": "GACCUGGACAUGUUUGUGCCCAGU",
    "TARGET_SYSTEM": "FBXW7",
    "3' UTR reporter interaction score": 0.534
  },
  {
    "ITEM_SEQUENCE": "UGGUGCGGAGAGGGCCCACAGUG",
    "TARGET_SYSTEM": "FBXW7",
    "3' UTR reporter interaction score": 0.508
  },
  {
    "ITEM_SEQUENCE": "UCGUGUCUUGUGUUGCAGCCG",
    "TARGET_SYSTEM": "FBXW7",
    "3' UTR reporter interaction score": -0.364
  },
  {
    "ITEM_SEQUENCE": "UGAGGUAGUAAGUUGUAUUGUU",
    "TARGET_SYSTEM": "FBXW7",
    "3' UTR reporter interaction score": 0.412
  },
  {
    "ITEM_SEQUENCE": "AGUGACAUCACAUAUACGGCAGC",
    "TARGET_SYSTEM": "FBXW7",
    "3' UTR reporter interaction score": -1.31
  },
  {
    "ITEM_SEQUENCE": "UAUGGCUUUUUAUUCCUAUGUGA",
    "TARGET_SYSTEM": "FBXW7",
    "3' UTR reporter interaction score": 0.0824
  },
  {
    "ITEM_SEQUENCE": "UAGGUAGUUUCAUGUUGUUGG",
    "TARGET_SYSTEM": "FBXW7",
    "3' UTR reporter interaction score": 1.58
  }
]

Report the value of 3' UTR reporter interaction score obtained on FBXW7 for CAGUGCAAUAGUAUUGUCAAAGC .
0.383

Report the value of 3' UTR reporter interaction score obtained on FBXW7 for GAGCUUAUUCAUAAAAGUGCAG .
-1.75

Report the value of 3' UTR reporter interaction score obtained on FBXW7 for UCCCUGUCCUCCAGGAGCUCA .
0.105

Report the value of 3' UTR reporter interaction score obtained on FBXW7 for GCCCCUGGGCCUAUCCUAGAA .
0.0138

Report the value of 3' UTR reporter interaction score obtained on FBXW7 for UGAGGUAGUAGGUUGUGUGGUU .
0.642

Origin of values: the supplement of paper PMC5844555
